test: Hydrolytic rate in 0.01 N aqueous sodium hydroxide, pH 12.0; type: physicochemical; conditions: 0.01 N NaOH, pH 12.0, ionic strength 0.10 M (NaCl), 27.3 ± 0.2° C.; ± SEM
Counter-ions that a name gives are not always drawn.
MEASURED PROPERTY: Observed pseudo first order hydrolytic rate constant k

CCCCOC(=O)Cc1ccc(OCC(O)CNC(C)C)cc1 (centres unmarked) :: 9.27 ± 0.07 × 10^-2 min^-1
CCCOC(=O)Cc1ccc(OCC(O)CNC(C)C)cc1 (centres unmarked) :: 0.103 ± 0.001 min⁻¹
CC(C)NCC(O)COc1ccc(CC(=O)OC2CC(C)(C)CC(C)(C)C2)cc1 (centres unmarked) [Compound 17, hydrate] :: 1.56 ± 0.04 × 10^-2 min^-1
CCOC(=O)Cc1ccc(OCC(O)CNC(C)C)cc1 (centres unmarked) :: 0.117 ± 0.001 min⁻¹
CC(C)NCC(O)COc1ccc(CC(=O)OC2CCCCC2)cc1 (centres unmarked) [Compound 15, hydrate] :: 4.96 ± 0.03 × 10^-2 min^-1
CC(C)NCC(O)COc1ccc(CC(=O)OC(C)C)cc1 (centres unmarked) :: 2.07 ± 0.03 × 10^-2 min^-1
CCCCOC(=O)Cc1ccc(OCC(O)CNC(C)(C)C)cc1 (centres unmarked) [Compound 18, oxalate hydrate] :: 7.19 ± 0.04 × 10^-2 min^-1

Query: GET /values?readout=Observed pseudo first order hydrolytic rate constant k&item= CC(C)NCC(O)COc1ccc(CC(=O)OCc2ccccc2)cc1 (centres unmarked)
Reply: 0.208 ± 0.004 min⁻¹

Origin of measurements: patent US4829086A
